Experiment: loss of viability in HepG2 cells – cell-based, CellTiter-Glo, cherry-picked, cytotoxicity control for Shn3 inhibitor project, dose response (AID 624134)
Details: CellTiter-Glo ATP luminescence, 48 h; series mostly up to 35 µM
In all, about 1,600 compounds went through this assay and about 1,100 (69%) were called active. So high a share suggests a set chosen from earlier hits. Only a sample is shown. Results with a measured potency or affinity are listed apart. Records with an inconclusive call do not appear.
measurement name: outcome

>  <molecule>
C=CCC[C@H](Cc1ccc(F)cc1)C(=O)OC[C@H](Cc1c[nH]c2ccccc12)NC(=O)[C@H](CC=C)CC(=O)N(CCO)Cc1ccccc1

>  <outcome>
inactive

$$$$
>  <molecule>
S=C(Nc1ccccc1)Nc1ccc(OCc2ccc(Cl)cc2Cl)cc1

>  <outcome>
inactive

$$$$
>  <molecule>
CCOC(=O)c1c(C)[nH]c(C(=O)COC(=O)[C@H](C)N2C(=O)C3CCCCC3C2=O)c1C (stereo not given in full)

>  <outcome>
inactive

$$$$
>  <molecule>
Cc1ccc(NC(=O)NCCCN2CCOCC2)cc1

>  <outcome>
inactive

$$$$
>  <molecule>
CC(=O)N1CCOc2cc(S(=O)(=O)NCc3ccc(F)cc3)c(C)cc21

>  <outcome>
inactive

$$$$
>  <molecule>
CC(NNC(=S)N1CCN(c2ccccn2)CC1)c1nccc2ccccc12 (stereo not given)

>  <outcome>
inactive

$$$$

Could you report outcome for every entry in the following list?
1. Nc1cc(=O)[nH]c(SCC(=O)Nc2cccc([N+](=O)[O-])c2)n1
2. Cc1ccc(Cn2ccc(NC(=O)c3nn(C)cc3[N+](=O)[O-])n2)cc1

OUTPUT:
1. inactive
2. inactive

Please look at the items below and tell me outcome for each one, in order.
1. CC(C)(C)C(=O)Nc1ccc(NC(=O)c2ccco2)nc1
2. O=C(NNc1ccccc1)C(=O)NNS(=O)(=O)c1ccc(CCCl)cc1

OUTPUT:
1. inactive
2. inactive

====

Assay: loss of viability in HepG2 cells – cell-based, CellTiter-Glo, cherry-picked, cytotoxicity control for Shn3 inhibitor project, dose response (AID 624134)
Conditions: CellTiter-Glo ATP luminescence, 48 h; series mostly up to 35 µM
Among all 1,600 compounds or so, about 1,100 (69%) were called active. So high a share suggests a set chosen from earlier hits. These entries were drawn from the full list. Entries with a potency or affinity are not part of this list. Results filed as inconclusive are left out.
measurement name: outcome

Solved entries:
>  <smiles representation>
COc1ccc(S(=O)(=O)N2CCN(c3cc(-c4ccccc4)nc4ncnn34)CC2)cc1

>  <outcome>
inactive

$$$$
>  <smiles representation>
COC(=O)[C@@]12CCCN1[C@H](c1ccc(-c3ccc(OC)cc3)cc1)[C@@H]1C(=O)N(C)C(=O)[C@@H]12

>  <outcome>
inactive

$$$$
>  <smiles representation>
COc1ccc(C(=O)OCC(=O)Nc2ccc3[nH]c(=O)[nH]c3c2)cc1

>  <outcome>
inactive

$$$$
>  <smiles representation>
O=C(c1n[nH]c(=O)c2ccccc12)N1CCN(C2c3ccccc3-c3ccccc32)CC1

>  <outcome>
inactive

$$$$
>  <smiles representation>
CCO[C@@H]1OC(C(=O)NC2CC2)=C[C@H](c2coc3ccccc3c2=O)[C@H]1CCCO

>  <outcome>
inactive

$$$$
>  <smiles representation>
CCOC(=O)Cc1csc(SCC(=O)c2c(N)n(CC(C)C)c(=O)n(C)c2=O)n1

>  <outcome>
inactive

$$$$
>  <smiles representation>
CC(C)c1nnc(NC(=O)c2nc(S(=O)(=O)Cc3ccccc3)ncc2Cl)s1

>  <outcome>
inactive

$$$$
>  <smiles representation>
Cc1ccc(-c2nnc(N3CCC(C)CC3)c3ccccc23)cc1C

>  <outcome>
inactive

$$$$
>  <smiles representation>
O=C(c1ccc(S(=O)(=O)c2ccc(F)cc2)c([N+](=O)[O-])c1)N1CCCCCC1

>  <outcome>
inactive

$$$$

Moving on to another compound below.
Reported outcome for "CSc1nnc(-c2ccco2)n1-c1ccccc1" was inactive
